# target.system: p38α (Homo sapiens)
# Construct: selectively degrades p38α, whereas exemplary PROTAC 46 (10-atom linker, phenyl attachment) selectively degrades p38δ in MDA-MB-231 cells; endogenous in cells; host or cells: MDA-MB-231
# Sequence (Q16539 whole entry): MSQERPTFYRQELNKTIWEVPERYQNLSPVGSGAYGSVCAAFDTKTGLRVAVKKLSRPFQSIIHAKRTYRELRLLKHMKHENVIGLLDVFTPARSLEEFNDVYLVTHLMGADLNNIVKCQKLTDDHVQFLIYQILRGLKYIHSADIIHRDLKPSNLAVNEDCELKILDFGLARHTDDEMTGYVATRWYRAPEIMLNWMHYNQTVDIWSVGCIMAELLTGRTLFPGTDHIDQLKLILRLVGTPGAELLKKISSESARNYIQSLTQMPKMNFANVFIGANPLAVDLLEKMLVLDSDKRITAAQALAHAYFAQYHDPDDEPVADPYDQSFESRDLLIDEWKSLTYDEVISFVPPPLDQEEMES
# assay.details: Western blot survey of p38 isoform degradation in MDA-MB-231 cells (incl. proteasome rescue, CHX chase, washout)
# Format: cell-based
# test.settings: MDA-MB-231 cells, western blot; read-out: p38α Dmax (maximum percentage of degradation achieved)
measure.name: Dmax (%)

Some entries whose results are on file:
molecule	target.system	Dmax [%]
COc1cc2c(Oc3ccc(NC(=O)C4(C(=O)Nc5ccc(F)cc5)CC4)cc3F)ccnc2cc1OCCCOCCCOCCC(=O)N[C@H](C(=O)N1C[C@H](O)C[C@H]1C(=O)NCc1ccc(-c2scnc2C)cc1)C(C)(C)C [Example 1]	p38α (Homo sapiens)	83
COc1cc2c(Oc3ccc(NC(=O)C4(C(=O)Nc5ccc(F)cc5)CC4)cc3F)ccnc2cc1OCCOCCOCCOc1cc(-c2scnc2C)ccc1CNC(=O)[C@@H]1C[C@@H](O)CN1C(=O)[C@H](C(C)C)N1Cc2ccccc2C1=O [compound 46]	p38α (Homo sapiens)	35
COc1cc2c(Oc3ccc(NC(=O)C4(C(=O)Nc5ccc(F)cc5)CC4)cc3F)ccnc2cc1OCCOCCOCCC(=O)N[C@H](C(=O)N1C[C@H](O)C[C@H]1C(=O)NCc1ccc(-c2scnc2C)cc1)C(C)(C)C [Ex. 49]	p38α (Homo sapiens)	91
COc1cc2c(Oc3ccc(NC(=O)C4(C(=O)Nc5ccc(F)cc5)CC4)cc3F)ccnc2cc1OCCCCOCCCCOc1cc(-c2scnc2C)ccc1CNC(=O)[C@@H]1C[C@@H](O)CN1C(=O)[C@H](C(C)C)N1Cc2ccccc2C1=O [Ex. 45]	p38α (Homo sapiens)	25
COc1cc2c(Oc3ccc(NC(=O)C4(C(=O)Nc5ccc(F)cc5)CC4)cc3F)ccnc2cc1OCCCOCCOCCCOc1cc(-c2scnc2C)ccc1CNC(=O)[C@@H]1C[C@@H](O)CN1C(=O)[C@H](C(C)C)N1Cc2ccccc2C1=O [Ex. 5]	p38α (Homo sapiens)	17

A. COc1cc2c(Oc3ccc(NC(=O)C4(C(=O)Nc5ccc(F)cc5)CC4)cc3F)ccnc2cc1OCCCOCCOCCC(=O)N[C@H](C(=O)N1C[C@H](O)C[C@H]1C(=O)NCc1ccc(-c2scnc2C)cc1)C(C)(C)C [Ex. 48]
B. COc1cc2c(Oc3ccc(NC(=O)C4(C(=O)Nc5ccc(F)cc5)CC4)cc3F)ccnc2cc1OCCCOCCCOCCCOc1cc(-c2scnc2C)ccc1CNC(=O)[C@@H]1C[C@@H](O)CN1C(=O)[C@H](C(C)C)N1Cc2ccccc2C1=O [Ex. 47]
Which entry has a larger number for Dmax, A or B ? Refer to your chosen item by its label in the answer.
A

---

# assay.details: Pharmacokinetics of intraperitoneal or intravenous injection in CD1 mice (plasma, LC/MS/MS)
# Format: in vivo
# test.settings: male, CD1, mouse, plasma, iv, 1 mg/kg, IV 1.0 mg/kg, 2 h, read-out: Conc. Mouse 1
measure.name: concentration at 2 h (ng/mL)
Answer format: numeric, ng/mL implied, no suffix.

Check the records and state concentration at 2 h for `COc1cc2c(Oc3ccc(NC(=O)C4(C(=O)Nc5ccc(F)cc5)CC4)cc3F)ccnc2cc1OCCCOCCCOCCC(=O)N[C@H](C(=O)N1C[C@H](O)C[C@H]1C(=O)NCc1ccc(-c2scnc2C)cc1)C(C)(C)C`
55.5

---

# target.system: p38α (Homo sapiens)
# Construct: selectively degrades p38α, whereas exemplary PROTAC 46 (10-atom linker, phenyl attachment) selectively degrades p38δ in MDA-MB-231 cells; endogenous in cells; host or cells: MDA-MB-231
# assay.details: Western blot survey of p38 isoform degradation in MDA-MB-231 cells (incl. proteasome rescue, CHX chase, washout)
# Assay type: cell-based
# test.settings: MDA-MB-231 cells, western blot; read-out: p38α DC50
# Experimental: FIGS. 11A and 11B. Survey of p38 isoform degradation with foretinib-based VHL PROTACs (related to FIGS. 9A-9C and Table 13). (A) Western blots of amide series PROTACs tested in increasing concentrations (0.025, 0.100, 0.250, 1.0, 5.0 μM) on MDA-MB-231 cells, in duplicate. […] FIGS. 13A, 13B, 13C, and 13D. […] (B) Quantitative real-time PCR was performed after 24 hours of treatment with either vehicle (DMSO), exemplary compound 50 (250 nM), or exemplary compound 46 (250 nM) in MDAMB-231 cells. […]
measure.name: DC50

record.smiles	DC50
COc1cc2c(Oc3ccc(NC(=O)C4(C(=O)Nc5ccc(F)cc5)CC4)cc3F)ccnc2cc1OCCOCCOCCOc1cc(-c2scnc2C)ccc1CNC(=O)[C@@H]1C[C@@H](O)CN1C(=O)[C@H](C(C)C)N1Cc2ccccc2C1=O	> 5 µM
COc1cc2c(Oc3ccc(NC(=O)C4(C(=O)Nc5ccc(F)cc5)CC4)cc3F)ccnc2cc1OCCCOCCOCCCOc1cc(-c2scnc2C)ccc1CNC(=O)[C@@H]1C[C@@H](O)CN1C(=O)[C@H](C(C)C)N1Cc2ccccc2C1=O	≥ 5 µM

Check the records and state DC50 for `COc1cc2c(Oc3ccc(NC(=O)C4(C(=O)Nc5ccc(F)cc5)CC4)cc3F)ccnc2cc1OCCCCOCCCCOc1cc(-c2scnc2C)ccc1CNC(=O)[C@@H]1C[C@@H](O)CN1C(=O)[C@H](C(C)C)N1Cc2ccccc2C1=O`
> 5 µM

Check the records and state DC50 for `COc1cc2c(Oc3ccc(NC(=O)C4(C(=O)Nc5ccc(F)cc5)CC4)cc3F)ccnc2cc1OCCCOCCCOCCCOc1cc(-c2scnc2C)ccc1CNC(=O)[C@@H]1C[C@@H](O)CN1C(=O)[C@H](C(C)C)N1Cc2ccccc2C1=O`
> 5 µM

---

# assay.details: Pharmacokinetics of intraperitoneal or intravenous injection in CD1 mice (plasma, LC/MS/MS)
# Assay type: in vivo
# test.settings: male, CD1, mouse, plasma, ip, 10 mg/kg, IP 10 mg/kg, 2 h, read-out: Conc. Mean
measure.name: concentration at 2 h (ng/mL)
Answer format: numeric, ng/mL implied, no suffix.

Check the records and state concentration at 2 h for `COc1cc2c(Oc3ccc(NC(=O)C4(C(=O)Nc5ccc(F)cc5)CC4)cc3F)ccnc2cc1OCCCOCCCOCCC(=O)N[C@H](C(=O)N1C[C@H](O)C[C@H]1C(=O)NCc1ccc(-c2scnc2C)cc1)C(C)(C)C`
7500

---

# assay.details: Pharmacokinetics of intraperitoneal or intravenous injection in CD1 mice (plasma, LC/MS/MS)
# Format: in vivo
# test.settings: male, CD1, mouse, plasma, iv, 1 mg/kg, IV 1.0 mg/kg, 4 h, read-out: Conc. Mouse 1
measure.name: concentration at 4 h (ng/mL)
Answer format: numeric, ng/mL implied, no suffix.

Check the records and state concentration at 4 h for `COc1cc2c(Oc3ccc(NC(=O)C4(C(=O)Nc5ccc(F)cc5)CC4)cc3F)ccnc2cc1OCCCOCCCOCCC(=O)N[C@H](C(=O)N1C[C@H](O)C[C@H]1C(=O)NCc1ccc(-c2scnc2C)cc1)C(C)(C)C`
16.8

---

# assay.details: Pharmacokinetics of intraperitoneal or intravenous injection in CD1 mice (plasma, LC/MS/MS)
# Type: in vivo
# test.settings: male, CD1, mouse, plasma, ip, 10 mg/kg, IP 10 mg/kg, 4 h, read-out: Conc. Mouse 3
measure.name: concentration at 4 h (ng/mL)
Answer format: numeric, ng/mL implied, no suffix.

Check the records and state concentration at 4 h for COc1cc2c(Oc3ccc(NC(=O)C4(C(=O)Nc5ccc(F)cc5)CC4)cc3F)ccnc2cc1OCCCOCCCOCCC(=O)N[C@H](C(=O)N1C[C@H](O)C[C@H]1C(=O)NCc1ccc(-c2scnc2C)cc1)C(C)(C)C [Example 1]
3460

---

# assay.details: Pharmacokinetics of intraperitoneal or intravenous injection in CD1 mice (plasma, LC/MS/MS)
# Assay type: in vivo
# test.settings: male, CD1, mouse, plasma, ip, 10 mg/kg, IP 10 mg/kg, 4 h, read-out: Conc. Mouse 2
measure.name: concentration at 4 h (ng/mL)
Answer format: numeric, ng/mL implied, no suffix.

Check the records and state concentration at 4 h for COc1cc2c(Oc3ccc(NC(=O)C4(C(=O)Nc5ccc(F)cc5)CC4)cc3F)ccnc2cc1OCCCOCCCOCCC(=O)N[C@H](C(=O)N1C[C@H](O)C[C@H]1C(=O)NCc1ccc(-c2scnc2C)cc1)C(C)(C)C [Example 1]
3740

---

# assay.details: Pharmacokinetics of intraperitoneal or intravenous injection in CD1 mice (plasma, LC/MS/MS)
# Assay type: in vivo
# test.settings: male, CD1, mouse, plasma, iv, 1 mg/kg, IV 1.0 mg/kg, 4 h, read-out: Conc. Mouse 3
measure.name: concentration at 4 h (ng/mL)
Answer format: numeric, ng/mL implied, no suffix.

Check the records and state concentration at 4 h for `COc1cc2c(Oc3ccc(NC(=O)C4(C(=O)Nc5ccc(F)cc5)CC4)cc3F)ccnc2cc1OCCCOCCCOCCC(=O)N[C@H](C(=O)N1C[C@H](O)C[C@H]1C(=O)NCc1ccc(-c2scnc2C)cc1)C(C)(C)C`
13.9
